System: M. tuberculosis H37Rv growth inhibition with meropenem
Assay: dose response, H37Rv, with and without meropenem (AID 434987);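 note: growth over 7 days at 37 °C before Alamar Blue read on day 9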
Details: M. tuberculosis H37Rv growth inhibition; measured here: IC50 without meropenem
pIC50: −log10 of the molar value.
Overview of recorded pIC50 for various compounds

Example compounds with recorded pIC50:
CCOc1ccc(NC(=O)/C(C#N)=C/c2cn(CC(=O)O)c3ccccc23)cc1; < 4.00
N#Cc1c(C(F)(F)F)cc(-c2ccccc2)nc1SCc1nc(N)nc(N2CCOCC2)n1; < 4.00
COc1ccc2c(C)nc(Nc3nc(-c4ccccc4)cc(=O)[nH]3)nc2c1; < 4.00
Cc1nc2ccccc2c(=O)n1/N=C/c1c(O)ccc2oc3c(c12)CCCC3; < 4.00
COc1cc2c(=O)n(Cc3ccco3)c(=O)n(CC(=O)c3cccc(Br)c3)c2cc1OC; < 4.00
CCN(CCNC(=O)Nc1ccc(Cl)cc1)c1ccccc1; < 4.00

Give M. tuberculosis H37Rv growth inhibition with meropenem pIC50 for CCC1(CC)Cc2ccccc2C(N)=C1C#N
< 4.00

Give M. tuberculosis H37Rv growth inhibition with meropenem pIC50 for CCN(CC)c1ccc(CN2CCCCCC2)cc1
4.32

Give M. tuberculosis H37Rv growth inhibition with meropenem pIC50 for CCCOc1ccc(C(=O)N/N=C/c2ccc(-c3ccc(S(=O)(=O)Nc4ncccn4)cc3)o2)cc1
4.40

Give M. tuberculosis H37Rv growth inhibition with meropenem pIC50 for COc1cccc(/C=N/NC(=O)CSCC(=O)Nc2ccccc2)c1O
< 4.00

Give M. tuberculosis H37Rv growth inhibition with meropenem pIC50 for Cc1cc(Br)ccc1NC(=O)c1ccccc1-c1ccccc1
< 4.00

---

Overview of recorded IC50 for various molecules
Tested on: M. tuberculosis H37Rv growth inhibition with meropenem
Assay: dose response, H37Rv, with and without meropenem (AID 434987);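 note: growth over 7 days at 37 °C before Alamar Blue read on day 9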
Settings: M. tuberculosis H37Rv growth inhibition; measured here: IC50 without meropenem
Field format: number, assumed µM, no unit text.

Example molecules with recorded IC50:
Cc1ccc(C)c(CSc2nnc(C)c(=O)n2N)c1; 14.1
O=C(NC(=S)N1CCOCC1)c1ccc([N+](=O)[O-])cc1; 46.8
CCOC(=O)C1CCN(C(=O)c2sc3nc(C)nc(N4CCC(C)CC4)c3c2C)CC1; 76.5
C=CCc1cc(Cl)ccc1OCCCNC(C)CC (stereo not drawn); 49.2
C/C(CC(=O)Nc1c(C)cc(C)cc1C)=N\NC(=O)c1cnccn1; 28.7

Proceed to the following item.
Value lookup for IC50; key = CC12CCC(C/C1=N\N=C1\NC(=O)/C(=C\c3cccc(Br)c3)S1)C2(C)C (stereo not drawn)
26.6

---

Tested on: M. tuberculosis H37Rv growth inhibition with meropenem
Experiment: dose response, H37Rv, with and without meropenem (AID 434987);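 note: growth over 7 days at 37 °C before Alamar Blue read on day 9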
Details: M. tuberculosis H37Rv growth inhibition; measured here: IC50 without meropenem
Overview of recorded pIC50 for various compounds
// pIC50 is dimensionless: -log10 of concentration (M)

COc1cc2c(cc1OC)C(c1ccccc1)CC2=O (stereo not given); 4.03
COc1ccc(-c2csc(NC(CO)c3nc4ccccc4n3Cc3ccc(C)cc3)n2)cc1 (stereo not given); 4.32
O=C(NCC1COc2ccccc2O1)C1CCC(CNc2c(N3CCCCC3)c(=O)c2=O)CC1 (stereo not given); 4.34

Proceed to the following item.
Value lookup for pIC50; key = COc1ccc(-n2cc(-c3ccccc3)c3c(NN4CCOCC4)ncnc32)cc1
4.48
